Parameter: pIC50. Scope: all listed entries.
- System: Human Umbilical Vein Endothelial cells
- experimentalDetails: HUVEC proliferation assay (VEGF-stimulated)
- Type: cell-based
- conditionContext: 72 h, CyQuant, read-out: inhibition of VEGF-stimulated HUVEC proliferation
pIC50: −log10 of the molar value.
reportedEndpoint: pIC50

{"columns": ["molecule", "reportedEndpoint", "result"],
 "data": [
  ["CC(C)(C)c1ccc(N2CCc3cccc(NCc4ccncc4)c3C2=O)cc1 [Example 3]", "pIC50", "> 6.30"],
  ["CC(C)(C)c1ccc(-n2ncc3cccc(NCc4c[nH]c5ncccc45)c3c2=O)cc1 [Example 2]", "pIC50", "> 6.30"],
  ["CC(C)(C)c1ccc(-n2ncc3cccc(NCc4ccncc4)c3c2=O)cc1 [Example 1]", "pIC50", "> 6.30"]
]}
